Test system: chickens
Assay: Serum cholesterol, apolipoproteins, triglycerides and glucose in chickens fed supplemented diets
Format: in vivo, chicken
Settings: control diet + 50 ppm, 4 weeks
Listing of entries alongside the reported HDL-Cholesterol, percentage of control.

molecule | units.of.measure | HDL-Cholesterol, percentage of control
CC(C)=CCC/C(C)=C/CC/C(C)=C/CCC1CCc2cc(O)ccc2O1 (centres unmarked) | % | 53.82
CC(C)=CCC/C(C)=C/CC/C(C)=C/CCC1(C)CCc2cc(O)cc(C)c2O1 (centres unmarked) | % | 93.08
CC(C)=CCC/C(C)=C/CC/C(C)=C/CC[C@]1(C)CCc2c(C)c(O)c(C)c(C)c2O1 | % | 96.19
CC(C)=CCC/C(C)=C/CC/C(C)=C/CCC1(C)CCc2cc(O)c(C)c(C)c2O1 (centres unmarked) [γ-T3, γ-tocotrienol, reference compound] | % | 93.70
CC(C)=CCC/C(C)=C/CC/C(C)=C/CCC1(C)CCc2cc(O)ccc2O1 (centres unmarked) | % | 82.33

----------
Target: HMG-CoA reductase (Homo sapiens)
Construct: hepatocytes isolated from livers of 8-week old female chickens; endogenous in cells; host or cells: primary chicken hepatocytes
Sequence (P04035 1-888): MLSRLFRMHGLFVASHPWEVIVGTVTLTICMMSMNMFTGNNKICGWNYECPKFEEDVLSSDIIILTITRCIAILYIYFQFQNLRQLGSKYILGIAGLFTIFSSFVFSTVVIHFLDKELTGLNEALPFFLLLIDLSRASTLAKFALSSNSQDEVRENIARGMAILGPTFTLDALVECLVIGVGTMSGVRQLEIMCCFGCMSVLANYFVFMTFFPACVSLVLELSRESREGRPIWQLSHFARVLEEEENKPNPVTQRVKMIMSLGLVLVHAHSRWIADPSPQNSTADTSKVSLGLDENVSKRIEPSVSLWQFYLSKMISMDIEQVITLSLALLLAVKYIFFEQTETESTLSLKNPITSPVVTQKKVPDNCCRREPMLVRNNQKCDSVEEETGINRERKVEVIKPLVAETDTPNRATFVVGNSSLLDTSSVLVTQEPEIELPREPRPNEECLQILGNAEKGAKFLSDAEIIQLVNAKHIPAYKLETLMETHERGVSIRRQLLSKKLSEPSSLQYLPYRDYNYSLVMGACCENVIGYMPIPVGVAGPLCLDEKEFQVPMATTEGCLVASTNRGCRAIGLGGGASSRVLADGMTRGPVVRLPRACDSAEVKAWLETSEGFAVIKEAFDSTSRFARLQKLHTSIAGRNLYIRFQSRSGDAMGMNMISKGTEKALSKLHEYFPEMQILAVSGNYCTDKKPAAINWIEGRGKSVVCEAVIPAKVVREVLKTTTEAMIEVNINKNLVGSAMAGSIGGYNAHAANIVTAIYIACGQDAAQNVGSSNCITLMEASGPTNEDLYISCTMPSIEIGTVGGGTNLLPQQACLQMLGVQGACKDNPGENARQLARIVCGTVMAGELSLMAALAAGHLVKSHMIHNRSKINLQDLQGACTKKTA
Test: Hepatic HMG-CoA reductase activity in chickens fed supplemented diets
Format: in vivo, chicken
Conditions: control diet + 50 ppm, 4 weeks
Classify: satisfied when HMG-CoA Reductase, percentage of control is strictly less than 80%; not satisfied when HMG-CoA Reductase, percentage of control is not.

compound | assayed.system | cat
CC(C)=CCC/C(C)=C/CC/C(C)=C/CCC1(C)CCc2cc(O)cc(C)c2O1 (centres unmarked) | HMG-CoA reductase (Homo sapiens) | satisfied
CC(C)=CCC/C(C)=C/CC/C(C)=C/CCC1CCc2cc(O)ccc2O1 (centres unmarked) | HMG-CoA reductase (Homo sapiens) | satisfied
CC(C)=CCC/C(C)=C/CC/C(C)=C/CC[C@]1(C)CCc2c(C)c(O)c(C)c(C)c2O1 | HMG-CoA reductase (Homo sapiens) | not satisfied
CC(C)=CCC/C(C)=C/CC/C(C)=C/CCC1(C)CCc2cc(O)ccc2O1 (centres unmarked) | HMG-CoA reductase (Homo sapiens) | satisfied

Reference source for all entries: patent US6239171A
